Entries and their Kd
- tested target: T1, AFP158/HLA-A*02:01 complex (human)
- T1 construct: biotinylated on the BSP by BirA for ELISA and panning; also called biotinylated AFP158/HLA-A*02:01 complex; Bio-AFP158
- run description: SPR, crude scFv captured;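 further: Peptide–MHC complex flowed at several concentrations over sensorchip-captured scFv, Kd derived from on- and off-rates obtained from the association and dissociation curves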
Please reply with the bare figure in nM and do not write the unit itself.

The cases that follow already have their Kd on record.
{"binder": "AS170036 VL1VH1 HG56L (scFv) scFv: QSALTQPRSVSGSPGQSVTISCAGTSSDVGSENYVSWYQQHPGKAPKLMIYQVNKRASGVPDRFSGSKSGNTASLTISGLQAEDEADYYCASYRSSDHNIVFGGGTKLTVLGGGGSGGGGSGGGGSEVQLVESGGGLVQPGGSLRLSCAASGFTFSSYAMSWVRQAPGKGLEWVSTINSGTLSPYYADSVKGRFTISRDNSKNTLYLQMNSLRAEDTAVYYCAKNFFDGSWFLGPPAMDYWGQGTLVTVSSHHHHHH", "Kd, nM": 290}
{"binder": "AS170036 VL1VH1-VHS57Q (scFv) scFv: QSALTQPRSVSGSPGQSVTISCAGTSSDVGSENYVSWYQQHPGKAPKLMIYQVNKRASGVPDRFSGSKSGNTASLTISGLQAEDEADYYCASYRSSDHNIVFGGGTKLTVLGGGGSGGGGSGGGGSEVQLVESGGGLVQPGGSLRLSCAASGFTFSSYAMSWVRQAPGKGLEWVSTINSGTGQPYYADSVKGRFTISRDNSKNTLYLQMNSLRAEDTAVYYCAKNFFDGSWFLGPPAMDYWGQGTLVTVSSHHHHHH", "Kd, nM": 100}

Data request, read-out Kd, for AS170036 VL1VH1 HG56V (scFv) scFv: QSALTQPRSVSGSPGQSVTISCAGTSSDVGSENYVSWYQQHPGKAPKLMIYQVNKRASGVPDRFSGSKSGNTASLTISGLQAEDEADYYCASYRSSDHNIVFGGGTKLTVLGGGGSGGGGSGGGGSEVQLVESGGGLVQPGGSLRLSCAASGFTFSSYAMSWVRQAPGKGLEWVSTINSGTVSPYYADSVKGRFTISRDNSKNTLYLQMNSLRAEDTAVYYCAKNFFDGSWFLGPPAMDYWGQGTLVTVSSHHHHHH
630
